experiment: Metabolic stability in mouse liver microsomes assessed as half life; format: ADME, Microsome
measured-attribute: half-life (h)

chem_smiles=O=C(O)c1cc(F)c2nc(N3CCC4(C=C(c5c(-c6ccccc6OC(F)(F)F)noc5C5CC5)C4)CC3)sc2c1 measured_attribute=half-life value_observed=1.52
chem_smiles=O=C(O)c1ccc2cc(N3CCC4(C=C(c5c(-c6c(Cl)cc(F)cc6Cl)noc5C5CC5)C4)CC3)ccc2n1 measured_attribute=half-life value_observed=1.48

P = O=C(O)c1cc(F)c2nc(N3CCC4(CC3)CC(c3c(-c5c(Cl)cccc5Cl)noc3C3CC3)C4)sc2c1
Q = O=C(O)c1cc(F)c2nc(N3CCC(CCc4c(-c5c(Cl)cccc5Cl)noc4C4CC4)CC3)sc2c1
input: Param pair: P , Q . Output: the one whose half-life is numerically greater. Select an item and report its label.
output: P
(P: 1.53 h, Q: 0.283 h)

====

assay: Metabolic stability in mouse liver microsomes assessed as half life; type: ADME, Microsome
measured-attribute: half-life (h)

molecule="O=C(O)c1cc(F)c2nc(N3C4CCC3CC(/C=C/c3c(-c5c(Cl)cccc5Cl)noc3C3CC3)C4)sc2c1 (centres undefined)" uom=h value_observed=0.967
molecule="O=C(O)c1cc(F)c2nc(N3CC4C(/C=C/c5c(-c6c(Cl)cccc6Cl)noc5C5CC5)C4C3)sc2c1 (centres undefined)" uom=h value_observed=1.45
molecule=O=C(O)c1ccc(N2CCC3(C=C(c4c(-c5c(Cl)cccc5Cl)noc4C4CC4)C3)CC2)nc1 uom=h value_observed=1.72

====

Molecular target: Peroxisome proliferator-activated receptor alpha (Homo sapiens)
Sequence (Q07869 whole entry): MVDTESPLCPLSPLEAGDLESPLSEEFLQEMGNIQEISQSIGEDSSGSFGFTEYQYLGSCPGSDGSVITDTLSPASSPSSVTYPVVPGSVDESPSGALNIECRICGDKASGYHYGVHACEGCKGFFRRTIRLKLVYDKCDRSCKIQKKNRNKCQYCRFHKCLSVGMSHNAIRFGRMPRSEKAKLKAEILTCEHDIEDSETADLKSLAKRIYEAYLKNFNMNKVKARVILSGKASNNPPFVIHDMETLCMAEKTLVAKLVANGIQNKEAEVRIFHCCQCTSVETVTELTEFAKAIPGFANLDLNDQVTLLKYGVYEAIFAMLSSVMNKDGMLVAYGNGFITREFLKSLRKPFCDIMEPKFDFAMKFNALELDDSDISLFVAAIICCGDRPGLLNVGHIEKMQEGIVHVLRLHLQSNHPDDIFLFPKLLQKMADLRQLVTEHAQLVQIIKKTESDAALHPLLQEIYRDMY
Test: Activation of PPARalpha LBD (unknown origin) co-expressed with Gal4UAS-luciferase reporter in HEK293 cells incubated for 24 hrs by Steady-Glo luciferase reporter gene based luminescence analysis
measured-attribute: EC50

input: Look up and state reported EC50 for O=C(O)c1cc(C(F)(F)F)c2cc(N3CCC4(C=C(c5c(-c6c(Cl)cncc6Cl)noc5C5CC5)C4)CC3)ccc2n1
output: > 40 µM

====

assay: Metabolic stability in human liver microsomes assessed as half life; assay type: ADME, Microsome
measured-attribute: half-life (h)

Would you please look over these solved cases?
chem_smiles=O=C(O)c1cc(F)c2nc(N3CCC4(C=C(c5c(-c6ccccc6C(F)(F)F)noc5C5CC5)C4)CC3)sc2c1 value_observed=1.72
chem_smiles=O=C(O)c1cc(F)c2nc(N3CCC4(C=C(c5c(-c6ccccc6OC(F)(F)F)noc5C5CC5)C4)CC3)sc2c1 value_observed=1.62

A = O=C(O)c1ccc2cc(N3CCC4(C=C(c5c(-c6c(Cl)cc(F)cc6Cl)noc5C5CC5)C4)CC3)ccc2n1
B = O=C(O)c1ccc(N2CCC3(C=C(c4c(-c5c(Cl)cccc5Cl)noc4C4CC4)C3)CC2)nc1
input: Between item A and item B , which reported half-life is smaller? // return label of chosen record
output: B
(B: 0.667 h, A: 1.67 h)
